Reported TGI values for the following molecules.
System: DU-145 prostate
experiment.summary: NCI tumour cell line growth inhibition, 48 h
observed.property: TGI

{"molecule": "CCOC(=O)c1ccc2[nH]c(O)c(C(=Nc3ccc(N(C)C(=O)CN4CCN(C)CC4)cc3)c3ccccc3)c2c1", "observed.property": "TGI", "measured.result": "2.1 µM"}
{"molecule": "C=C(CN(C)C)C1(c2ccccc2)CC2(CCCC2)C(=O)O1 (stereo unspecified)", "observed.property": "TGI", "measured.result": "> 100 µM"}
{"molecule": "Cc1ccc(-c2cc3c(NC(=O)C4CC4)ncnc3o2)cc1", "observed.property": "TGI", "measured.result": "> 25 µM"}
{"molecule": "Cc1cc2cc3c(Cl)c(CCCl)c(C)nc3cc2c(Cl)c1CCCl", "observed.property": "TGI", "measured.result": "80.3 µM"}
{"molecule": "O=C(c1ccc(Cl)c(Cl)c1)N(Cc1cccnc1)C(=S)N(Cc1cccnc1)C(=O)c1ccc(Cl)c(Cl)c1", "observed.property": "TGI", "measured.result": "> 100 µM"}
{"molecule": "O=C(CN1CCN(c2ccccc2)CC1)c1ccc2[nH]c(=O)oc2c1", "observed.property": "TGI", "measured.result": "> 100 µM"}

---

Tested on: HT29 colon
experiment.summary: NCI tumour cell line growth inhibition, 48 h

{"molecule": "NC(=O)c1c2c(n3ccccc13)C(=O)c1ccccc1C2=O", "result.units": "µM", "value.operator": ">", "TGI": 100}
{"molecule": "O=c1c2c([nH]c3cc4c(cc13)OCO4)-c1ccccc1C2", "result.units": "µM", "value.operator": "=", "TGI": 33}
{"molecule": "O=C(CCc1n[nH]c(=S)o1)Nc1cc(Cl)c(Cl)cc1Cl", "result.units": "µM", "value.operator": ">", "TGI": 100}
{"molecule": "O=c1[nH]c2ccc(C(F)(F)F)cc2nc1Cc1ccccc1", "result.units": "µM", "value.operator": "=", "TGI": 68.7}
{"molecule": "O=c1c(O)c(-c2ccccc2)n(O)c2ccc(Cl)cc12", "result.units": "µM", "value.operator": ">", "TGI": 100}
{"molecule": "CCOC(=O)c1ccc2[nH]c(O)c(C(=Nc3ccc(N(C)C(=O)CN4CCN(C)CC4)cc3)c3ccccc3)c2c1", "result.units": "µM", "value.operator": "=", "TGI": 8.87}
{"molecule": "COc1cc(C2c3cc4c(cc3CC3COC(=O)N32)OCO4)cc(OC)c1OC (stereo not given)", "result.units": "µM", "value.operator": "=", "TGI": 5.14}
{"molecule": "C=C(Nc1ccc(OC)cc1OC)C(=O)Cc1cccc[n+]1[O-]", "result.units": "µM", "value.operator": ">", "TGI": 100}
{"molecule": "Cc1ncc(CO)c(C=NCCCCCCN=Cc2c(CO)cnc(C)c2[O-])c1[O-].[Cu+2]", "result.units": "µM", "value.operator": ">", "TGI": 100}
{"molecule": "Clc1ccc(Nc2nn3c(CCCCCCCCc4nnc5sc(Nc6ccc(Cl)cc6)nn45)nnc3s2)cc1", "result.units": "µM", "value.operator": ">", "TGI": 100}

---

Catalogue of TGI readings, one per entry.
Test system: MOLT-4 leukemia
experiment.summary: NCI tumour cell line growth inhibition, 48 h

{"molecule": "CN1CCN(c2ccc(N3Cc4ccccc4OC4=C3C(=O)c3c(O)ccc(O)c3C4=O)cn2)CC1", "TGI": "5.38 µM"}
{"molecule": "Cc1ccc(Nc2nc(C)c(C(=O)CC(=O)C(=O)Nc3ccc(Cl)cc3)s2)cc1", "TGI": "> 100 µM"}
{"molecule": "CN1C(=O)/C(=C/c2c(Cl)[nH]c3ccccc23)c2ccccc21", "TGI": "> 100 µM"}
{"molecule": "CCCc1cc2c(cc1O)CC[C@@H]1[C@@H]2CC[C@]2(C)[C@@H](O)CC[C@@H]12", "TGI": "20.4 µM"}
{"molecule": "Cc1c(Cl)ccc2c1NC(=O)C2(O)CC(=O)c1ccc2ccccc2c1 (centres undefined)", "TGI": "89.5 µM"}
{"molecule": "COC(=O)[C@@]12CCCC(=O)[C@@H]1[C@H]1CCC[C@H]12", "TGI": "> 100 µM"}
{"molecule": "Clc1ccc(Nc2nn3c(CCCCCCCCc4nnc5sc(Nc6ccc(Cl)cc6)nn45)nnc3s2)cc1", "TGI": "> 100 µM"}
{"molecule": "[Co+2].[O-]c1ccccc1C=NCc1ccccc1.[O-]c1ccccc1C=NCc1ccccc1", "TGI": "> 100 µM"}
{"molecule": "Cc1cn(CCCCCCOC(=O)NC(CCCN=C(N)N)C(=O)O)c(=O)[nH]c1=O (centres undefined)", "TGI": "> 100 µM"}
